src = ChEMBL document CHEMBL5046268

experiment: Microsomal stability in C57BL/6J mouse liver microsomes assessed as half life at 3 mg/kg, ip by LC-MS/MS analysis; assay type: ADME, Microsome
parameterMeasured: half-life

Task: State, in one line, measured half-life of `CCN(CC)S(=O)(=O)/N=C(/N=C(/C)N)N1C[C@H](c2ccccc2)C(c2ccc(Cl)cc2)=N1`
Output: > 2 min

Task: State, in one line, measured half-life of `C/C(N)=N\C(=N\S(=O)(=O)N1CCCCC1)N1C[C@H](c2ccccc2)C(c2ccc(Cl)cc2)=N1`
Output: > 2 min

====

biological target: Cannabinoid receptor 1 (Homo sapiens, UniProt P21554); assay: Inverse agonist activity at human CB1R expressed in CHO-K1 cell membrane assessed as […] in [35S]GTPgammaS binding; format: functional, cell membranes
Sequence (P21554 whole entry): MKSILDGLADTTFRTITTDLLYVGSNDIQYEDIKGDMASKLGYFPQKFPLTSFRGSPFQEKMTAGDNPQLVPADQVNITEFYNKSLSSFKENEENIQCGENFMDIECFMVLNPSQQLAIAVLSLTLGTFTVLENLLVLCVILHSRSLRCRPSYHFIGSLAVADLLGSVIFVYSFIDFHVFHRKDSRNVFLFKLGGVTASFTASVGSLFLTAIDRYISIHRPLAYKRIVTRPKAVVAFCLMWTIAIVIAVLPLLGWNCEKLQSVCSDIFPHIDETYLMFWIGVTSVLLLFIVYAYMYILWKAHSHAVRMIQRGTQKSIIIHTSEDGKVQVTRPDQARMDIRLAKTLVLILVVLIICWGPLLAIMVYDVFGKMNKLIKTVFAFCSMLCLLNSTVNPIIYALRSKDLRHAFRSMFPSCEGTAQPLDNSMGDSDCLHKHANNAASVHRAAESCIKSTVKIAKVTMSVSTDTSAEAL
parameterMeasured: IC50 (nM)
Your answer is read as nM, so omit the unit and give the number.

Task: State IC50 (Cannabinoid receptor 1 (Homo sapiens, UniProt P21554)) of `CS/C(N)=N/C(=N/S(=O)(=O)N1CCC(C(F)(F)F)CC1)N1C[C@H](c2ccccc2)C(c2ccc(Cl)cc2)=N1` .
Output: 1.6

Task: State IC50 (Cannabinoid receptor 1 (Homo sapiens, UniProt P21554)) of N/C(=N\C(=N\S(=O)(=O)N1CCC(F)(F)CC1)N1CC(c2ccccc2)C(c2ccc(Cl)cc2)=N1)c1ccc(Cl)cc1 (stereo unspecified) .
Output: 2.5

Task: State IC50 (Cannabinoid receptor 1 (Homo sapiens, UniProt P21554)) of CC(C)(C)/C(N)=N/C(=N/S(=O)(=O)N1CCC(C(F)(F)F)CC1)N1CC(c2ccccc2)C(c2ccc(Cl)cc2)=N1 (stereo unspecified) .
Output: 1.8

Task: State IC50 (Cannabinoid receptor 1 (Homo sapiens, UniProt P21554)) of `C/C(N)=N\C(=N\S(=O)(=O)N1CCCCC1)N1C[C@H](c2ccccc2)C(c2ccc(Cl)cc2)=N1` .
Output: 2

Task: State IC50 (Cannabinoid receptor 1 (Homo sapiens, UniProt P21554)) of `CCN(CC)S(=O)(=O)/N=C(/N=C(/C)N)N1C[C@H](c2ccccc2)C(c2ccc(Cl)cc2)=N1` .
Output: 0.8

Task: State IC50 (Cannabinoid receptor 1 (Homo sapiens, UniProt P21554)) of CC(C)(C)/C(N)=N/C(=N/S(=O)(=O)N1CCC(F)(F)CC1)N1CC(c2ccccc2)C(c2ccc(Cl)cc2)=N1 (stereo unspecified) .
Output: 3.2
